# Test system: Mus musculus
# assay_notes: Immunostimulatory activity in ICR mouse assessed as induction of MIP-1beta release at 100 uM, iv after 2 hrs by ELISA
# Type: functional, organism-based
The source made the active and inactive calls. The rule behind the calls is not given here.
measurement_name: Activity

cpd_smiles: CCCCCCCCCCCCCCCCC(CCCCCCCCCCCCCCCC)C(=O)OC[C@H]1O[C@H](O[C@H]2O[C@H](COC(=O)C(CCCCCCCCCCCCCCCC)CCCCCCCCCCCCCCCC)[C@@H](O)[C@H](O)[C@H]2O)[C@H](O)[C@@H](O)[C@@H]1O
measurement_name: Activity
reading: Active
--
cpd_smiles: CCCCCCCCCCCCCCC[C@@H](O)[C@@H](CCCCCCCCCCCCCC)C(=O)OC[C@H]1O[C@H](O[C@H]2O[C@H](COC(=O)[C@H](CCCCCCCCCCCCCC)[C@H](O)CCCCCCCCCCCCCCC)[C@@H](O)[C@H](O)[C@H]2O)[C@H](O)[C@@H](O)[C@@H]1O
measurement_name: Activity
reading: Active

====

# Tested on: Mus musculus
# assay_notes: Immunostimulatory activity in ICR mouse assessed as induction of MIP-1beta release at 100 uM, iv after 2 hrs by ELISA
# Format: functional, organism-based
Activity calls are given as the source filed them. The calls are words filed in the database; no cut-off is given here.
measurement_name: Activity

molecule: CCCCCCCCCC(CCCCCCCCC)CC(=O)OC[C@H]1O[C@H](O[C@H]2O[C@H](COC(=O)CC(CCCCCCCCC)CCCCCCCCC)[C@@H](O)[C@H](O)[C@H]2O)[C@H](O)[C@@H](O)[C@@H]1O [VIZANTIN]
assayed_system: Mus musculus
measurement_name: Activity
reading: Active

molecule: CCCCCCCCCCCCCCC(CCCCCCCCCCCCCC)CC(=O)OC[C@H]1O[C@H](O[C@H]2O[C@H](COC(=O)CC(CCCCCCCCCCCCCC)CCCCCCCCCCCCCC)[C@@H](O)[C@H](O)[C@H]2O)[C@H](O)[C@@H](O)[C@@H]1O
assayed_system: Mus musculus
measurement_name: Activity
reading: Active

molecule: CCCCCCCCC(CCCCCCCC)C(=O)OC[C@H]1O[C@H](O[C@H]2O[C@H](COC(=O)C(CCCCCCCC)CCCCCCCC)[C@@H](O)[C@H](O)[C@H]2O)[C@H](O)[C@@H](O)[C@@H]1O
assayed_system: Mus musculus
measurement_name: Activity
reading: Active

====

# Tested on: Macrophage
# assay_notes: Immunostimulatory activity in ICR mouse macrophage assessed as induction of phagocytic activity at 50 uM after 2 hrs by fluorescent microsphere assay
# Format: functional, cell-based
Activity calls are given as the source filed them. The calls are words filed in the database; no cut-off is given here.
Use one of these outcomes when replying: t (active), f (inactive)

# count of solved cases: 3
compound: CCCCCCCCCCCCCCC[C@@H](O)[C@@H](CCCCCCCCCCCCCC)C(=O)OC[C@H]1O[C@H](O[C@H]2O[C@H](COC(=O)[C@H](CCCCCCCCCCCCCC)[C@H](O)CCCCCCCCCCCCCCC)[C@@H](O)[C@H](O)[C@H]2O)[C@H](O)[C@@H](O)[C@@H]1O
classification: t
//
compound: CCCCCCCCC(CCCCCCCC)CCC(=O)OC[C@H]1O[C@H](O[C@H]2O[C@H](COC(=O)CCC(CCCCCCCC)CCCCCCCC)[C@@H](O)[C@H](O)[C@H]2O)[C@H](O)[C@@H](O)[C@@H]1O
classification: f
//
compound: CCCCCCCCCCCCCCCCC(CCCCCCCCCCCCCC)C(=O)OC[C@H]1O[C@H](O[C@H]2O[C@H](COC(=O)C(CCCCCCCCCCCCCC)CCCCCCCCCCCCCCCC)[C@@H](O)[C@H](O)[C@H]2O)[C@H](O)[C@@H](O)[C@@H]1O (some centres undefined)
classification: t

Then there is this compound:
For CCCCCCCCCCCCCCC[C@@H](OC)[C@@H](CCCCCCCCCCCCCC)C(=O)OC[C@H]1O[C@H](O[C@H]2O[C@H](COC(=O)[C@H](CCCCCCCCCCCCCC)[C@@H](CCCCCCCCCCCCCCC)OC)[C@@H](O)[C@H](O)[C@H]2O)[C@H](O)[C@@H](O)[C@@H]1O , which call appears in the assay record? t

====

# Test system: Macrophage
# assay_notes: Immunostimulatory activity in ICR mouse macrophage assessed as induction of phagocytic activity at 50 uM after 2 hrs by fluorescent microsphere assay
# Type: functional, cell-based
Active and inactive are the calls of the source. The rule behind the calls is not given here.

compound: CCCCCCCCCC(CCCCCCCCC)CCC(=O)OC[C@H]1O[C@H](O[C@H]2O[C@H](COC(=O)CCC(CCCCCCCCC)CCCCCCCCC)[C@@H](O)[C@H](O)[C@H]2O)[C@H](O)[C@@H](O)[C@@H]1O
Activity: inactive
//
compound: CCCCCCCCCCC(CCCCCCCCCC)C(=O)OC[C@H]1O[C@H](O[C@H]2O[C@H](COC(=O)C(CCCCCCCCCC)CCCCCCCCCC)[C@@H](O)[C@H](O)[C@H]2O)[C@H](O)[C@@H](O)[C@@H]1O
Activity: Active
//
compound: CCCCCCCCCC(CCCCCCCCC)CC(=O)OC[C@H]1O[C@H](O[C@H]2O[C@H](COC(=O)CC(CCCCCCCCC)CCCCCCCCC)[C@@H](O)[C@H](O)[C@H]2O)[C@H](O)[C@@H](O)[C@@H]1O [VIZANTIN]
Activity: Active
//
compound: CCCCCCCCCCCC(=O)O
Activity: inactive

====

# Test system: Mus musculus
# assay_notes: Immunostimulatory activity in ICR mouse assessed as induction of MIP-1beta release at 100 uM, iv after 2 hrs by ELISA
# Type: functional, organism-based
The source made the active and inactive calls. No cut-off for these calls is given here.

cpd_smiles: CCCCCCCCCCCCC(CCCCCCCCCCCC)C(=O)OC[C@H]1O[C@H](O[C@H]2O[C@H](COC(=O)C(CCCCCCCCCCCC)CCCCCCCCCCCC)[C@@H](O)[C@H](O)[C@H]2O)[C@H](O)[C@@H](O)[C@@H]1O
assayed_system: Mus musculus
Activity: Active

cpd_smiles: CCCCCCCCCCCCCCCC(CCCCCCCCCCCCCCC)C(=O)OC[C@H]1O[C@H](O[C@H]2O[C@H](COC(=O)C(CCCCCCCCCCCCCCC)CCCCCCCCCCCCCCC)[C@@H](O)[C@H](O)[C@H]2O)[C@H](O)[C@@H](O)[C@@H]1O
assayed_system: Mus musculus
Activity: Active

cpd_smiles: CCCCCCCCCCCCC(CCCCCCCCCCCC)CC(=O)OC[C@H]1O[C@H](O[C@H]2O[C@H](COC(=O)CC(CCCCCCCCCCCC)CCCCCCCCCCCC)[C@@H](O)[C@H](O)[C@H]2O)[C@H](O)[C@@H](O)[C@@H]1O
assayed_system: Mus musculus
Activity: Active

Where these numbers come from: ChEMBL document CHEMBL2311486
